molecular target: Human CYP8B1 (Homo sapiens); test: Human CYP8B1 Liver Microsome Assay; conditions: Human CYP8B1 IC50, human liver microsomes; substrate 7a-hydroxy-4-cholesten-3-one, NADPH; RapidFire MS detection of 7α,12α-dihydroxy-4-cholesten-3-one
reported metric: IC50 (nM)
One number for each entry, in nM.

C[C@@H]1CN(c2c(C#N)cnc3c(Cl)cccc23)CC[C@@H]1C(=O)N1CCn2c(nnc2C(F)(F)F)C1 [Example 14] : 1.7

For every item in the list below, what is its measured IC50?
1. C[C@@H]1CN(c2c(C#N)cnc3cccnc23)CC[C@@H]1C(=O)N1CCn2c(nnc2C(F)(F)F)C1 [Example 33]
2. CC[C@@H]1CN(c2c(C#N)cnc3ccc(Cl)cc23)CC[C@@H]1C(=O)N1CCn2c(nnc2C(F)(F)F)C1 [Example 75b]
3. COc1ccc2c(N3CC[C@H](C(=O)N4CCn5c(nnc5C(F)(F)F)C4)[C@H](C)C3)c(C#N)c(C)nc2c1 [Example 34]
4. COc1cc2ncc(C#N)c(N3CC[C@H](C(=O)N4CCn5c(nnc5C(F)(F)F)C4)[C@H](C)C3)c2cc1Br [Example 20]
5. N#Cc1cnc2ccc(Cl)cc2c1N1CCC(C(=O)N2CCn3c(nnc3C(F)(F)F)C2)CC1 [Example 103]
6. CO[C@H]1CN(c2c(C#N)cnc3ccc(Cl)cc23)CC[C@H]1C(=O)N1CCn2c(nnc2C(F)(F)F)C1 [Example 72c]

1.3
2.8
0.89
0.24
23.2
2210

* * *

biological target: Human CYP8B1 (Homo sapiens, UniProt Q9UNU6); test: Human CYP8B1 Liver Microsome Assay; details: Human CYP8B1 IC50, human liver microsomes; substrate 7a-hydroxy-4-cholesten-3-one, NADPH; RapidFire MS detection of 7α,12α-dihydroxy-4-cholesten-3-one
Sequence (Q9UNU6 whole entry): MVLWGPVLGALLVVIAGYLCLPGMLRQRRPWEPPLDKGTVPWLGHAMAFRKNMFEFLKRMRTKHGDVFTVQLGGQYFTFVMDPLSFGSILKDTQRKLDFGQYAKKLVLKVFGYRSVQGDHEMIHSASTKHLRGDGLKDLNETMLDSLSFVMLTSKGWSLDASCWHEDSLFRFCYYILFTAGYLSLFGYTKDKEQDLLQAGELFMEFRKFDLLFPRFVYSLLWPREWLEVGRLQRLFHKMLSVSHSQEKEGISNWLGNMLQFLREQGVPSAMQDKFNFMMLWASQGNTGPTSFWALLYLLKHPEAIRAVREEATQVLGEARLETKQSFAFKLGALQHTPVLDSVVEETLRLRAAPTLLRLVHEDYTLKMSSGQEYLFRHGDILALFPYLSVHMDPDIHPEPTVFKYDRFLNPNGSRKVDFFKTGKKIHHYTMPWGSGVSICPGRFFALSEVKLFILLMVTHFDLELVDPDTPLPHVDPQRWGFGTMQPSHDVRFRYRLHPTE
reported metric: pIC50
One number for each entry, as −log10 of the molar value.

Known pIC50 results, listed for orientation:
Cc1nc2ccc(Cl)cc2c(N2CC[C@H](C(=O)N3CCc4[nH]ncc4C3)[C@H](C)C2)c1C#N [Example 95] : 7.77
CC1CC(C(=O)N2CCn3c(nnc3C(F)(F)F)C2)CCN1c1c(C#N)cnc2ccc(Cl)cc12 (single isomer, unassigned) [Example 73c] : 7.80
C[C@@H]1CN(c2c(C#N)cnc3c(F)c(C(F)(F)F)ccc23)CC[C@@H]1C(=O)N1CCn2c(nnc2C(F)(F)F)C1 [Example 17] : 9.44

For every item in the list below, what is its measured pIC50?
1. COc1ccc2c(N3CCC(C(=O)N4CCn5c(C)nnc5C4)C(C)C3)c(C#N)cnc2c1 (stereo not shown) [Example 84]
2. COc1ccc2c(N3CC[C@H](C(=O)N4CCn5c(nnc5C(F)(F)F)C4)[C@H](C4CC4)C3)c(C#N)cnc2c1F [Example 77b]

1: 8.48; 2: 8.74

For every item in the list below, what is its measured pIC50?
1. C[C@@H]1CN(c2c(C#N)cnc3cc(F)ccc23)CC[C@@H]1C(=O)N1CCn2c(nnc2C(F)(F)F)C1 [Example 6]
2. CO[C@@H]1CN(c2c(C#N)cnc3ccc(Cl)cc23)CC[C@H]1C(=O)N1CCn2c(nnc2C(F)(F)F)C1 [Example 72b]

1. 8.68
2. 6.36

* * *

molecular target: Human CYP8B1 (Homo sapiens); assay: Human CYP8B1 Liver Microsome Assay; conditions: Human CYP8B1 IC50, human liver microsomes; substrate 7a-hydroxy-4-cholesten-3-one, NADPH; RapidFire MS detection of 7α,12α-dihydroxy-4-cholesten-3-one
reported metric: pIC50
Answers are plain numbers, as −log10 of the molar value.

Known pIC50 results, listed for orientation:
COc1ccc2ncc(C#N)c(N3CCC(C(=O)N4CCn5c(nnc5C(F)(F)F)C4)CC3)c2c1 : 7.17
Cc1nc2ccc(Cl)cc2c(N2CC[C@H](C(=O)N3CCc4c(n[nH]c4C(F)(F)F)C3)[C@H](C)C2)c1C#N : 7.55
CC1CN(c2c(C#N)cnc3ccc(C(F)(F)F)cc23)CCC1C(=O)N1CCn2c(nnc2C(F)(F)F)C1 (stereo not shown) : 8.92

Now look at this one.
Using the record for `C[C@@H]1CN(c2c(C#N)cnc3cc(-c4ncco4)ccc23)CC[C@@H]1C(=O)N1CCn2c(nnc2C(F)(F)F)C1` , report its pIC50.
9.40
